Kindly supply the reported Top MFI Mean values for the records listed here.
Target: T1, human claudin 6 (CLDN6) (human, UniProt P56747 1-220)
T1 construct: also called human CLDN6; hCLDN6
T1 sequence: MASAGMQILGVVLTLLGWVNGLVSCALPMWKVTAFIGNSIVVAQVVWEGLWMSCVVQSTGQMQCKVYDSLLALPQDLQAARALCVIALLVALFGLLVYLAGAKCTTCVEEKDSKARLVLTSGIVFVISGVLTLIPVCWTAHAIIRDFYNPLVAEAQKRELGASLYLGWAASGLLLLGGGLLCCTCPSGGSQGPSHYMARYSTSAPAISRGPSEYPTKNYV
Experiment: FACS, HEK293T/human CLDN6 cells
Procedure: For affinity determination, CLDN6 over-expressing HEK293T cells and cancer cell line PA-1 which express high levels of human CLDN6 were used to evaluate the binding activity of BG87P related engineering variants. […] EC50 values for dose-dependent binding to CLDN6 expressing cell lines were determined by fitting the dose-response data to the four-parameter logistic model with GraphPad Prism. […]
One number for each entry, in MFI.

Please review the entries below; each comes with its answer.
| BINDER | READING UNIT | Top MFI Mean |
| --- | --- | --- |
| chimeric BG87P antibody (chBG87P) (antibody, V domains shown) VH: QIQLQQSGPELVKPGASVKISCKASGYSFTDYHINWVKQRPGQGLEWIGWIYPGSGYTKYNEKFKVKATLTVDTSSSTAYMHLTSLTSEDSAVYFCARSGIYHYVSSYYFDHWGQGTTLTVSS VL: DIVMTQSHTFMSTSVGDRVSITCKASQDVGTAVAWYQQKPGQSPKLLIYWASTRHTGVPDRFTGSGSGTDFTLTISNVQSEDLADYFCQQYSSYTFGGGTKLEIK | MFI | 192000 |
| BG87P-26 (antibody, V domains shown) VH: QIQLVQSGAEVKKPGASVKVSCKASGYSFTDYHINWVRQAPGQRLEWMGWIYPGSGYTKYNEKFKGRVTITRDTSASTAYMELSSLRSEDTAVYFCARSGIYHYVSSYYFDHWGKGTTVTVSS VL: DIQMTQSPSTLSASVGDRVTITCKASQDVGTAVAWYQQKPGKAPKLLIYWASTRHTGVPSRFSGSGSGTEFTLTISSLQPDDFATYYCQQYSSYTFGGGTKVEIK | MFI | 148000 |

Problem: Using the record for BG87P-m2 (antibody, V domains shown, PTM removal variant of chBG87P; constant regions not restated (parent: human IgG1/kappa)) VH: QIQLQQSGPELVKPGASVKISCKASGYSFTDYHINWVKQRPGQGLEWIGWIYPGSGYTKYNEKFKVKATLTVDTSSSTAYMHLTSLTSEDSAVYFCARSGIYHYVSSYYFQHWGQGTTLTVSS VL: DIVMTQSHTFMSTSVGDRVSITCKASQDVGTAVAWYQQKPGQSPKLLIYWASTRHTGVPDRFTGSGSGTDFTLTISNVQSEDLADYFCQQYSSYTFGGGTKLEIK , report its Top MFI Mean.
Solution: 202000
